Could you please report measured pIC50 for the items listed next?
TESTED_SYSTEM: CYP2D6 (Homo sapiens, UniProt P10635)
Sequence (P10635 whole entry): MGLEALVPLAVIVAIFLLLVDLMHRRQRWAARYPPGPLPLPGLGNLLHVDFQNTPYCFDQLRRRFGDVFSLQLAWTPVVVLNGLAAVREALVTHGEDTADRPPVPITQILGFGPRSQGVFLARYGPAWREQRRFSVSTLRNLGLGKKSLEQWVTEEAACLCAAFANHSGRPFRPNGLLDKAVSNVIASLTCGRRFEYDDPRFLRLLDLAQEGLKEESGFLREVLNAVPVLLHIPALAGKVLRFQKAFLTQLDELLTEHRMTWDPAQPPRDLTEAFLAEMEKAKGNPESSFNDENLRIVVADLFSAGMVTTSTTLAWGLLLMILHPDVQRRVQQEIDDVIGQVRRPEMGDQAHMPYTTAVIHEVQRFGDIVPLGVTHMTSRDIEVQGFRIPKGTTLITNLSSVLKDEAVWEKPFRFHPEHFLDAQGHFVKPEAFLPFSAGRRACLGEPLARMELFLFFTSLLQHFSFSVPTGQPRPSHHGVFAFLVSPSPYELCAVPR
ASSAY_INFO: CYP2D6 inhibition assay (bufuralol, pooled human liver microsomes)
REPORTED_CONDITIONS: 2D6 IC50, CYP2D6 inhibition
Answers are plain numbers, as −log10 of the molar value.

The examples below pair each entry with its known result.
Need pIC50, item CO[C@H](C)C(=O)N[C@@H](Cc1cc(F)cc(F)c1)[C@H](O)CN[C@H]1CC2(CCC2)Oc2c1cc(CC(C)(C)C)nc2-c1cncn1C [Example 652]
5.70

For CC(=O)N[C@@H](Cc1cccc(-c2ccncc2)c1)[C@H](O)CN[C@H]1CC2(CCC2)Oc2ncc(CC(C)(C)C)cc21 [compound 616] , what is its reported pIC50?
6.52

Quick one: pIC50 for COCC(=O)N[C@@H](Cc1ccncc1)[C@H](O)CN[C@H]1CC2(CCC2)Oc2c(-c3ccncc3)cc(CC(C)C)cc21 [Example 628] ?
5.72

Report pIC50 for every entry below.
1. CO[C@H](C)C(=O)N[C@@H](Cc1cccc(C#N)c1)[C@H](O)CN[C@H]1CC2(CCC2)Oc2c(-c3ccncc3)cc(CC(C)C)cc21 [compound 620]
2. COCC(=O)N[C@@H](Cc1ccc2c(c1)OCO2)[C@H](O)CN[C@H]1CC2(CCC2)Oc2c1cc(CC(C)C)nc2Cl [compound 656]

5.72
5.28

====

Assignment: determine reported pIC50 for the given molecules.
TESTED_SYSTEM: CYP2D6 (Homo sapiens)
ASSAY_INFO: CYP2D6 inhibition assay (bufuralol, pooled human liver microsomes)
REPORTED_CONDITIONS: 2D6 IC50, CYP2D6 inhibition
Numbers only, as −log10 of the molar value.

Previously resolved entries follow.
Quick one: pIC50 of `COCC(=O)N[C@@H](Cc1ccccc1)[C@H](O)CN[C@H]1CC2(CCC2)Oc2c(-c3ccncc3)cc(CC(C)C)cc21` ?
5.57

Look up pIC50 for this molecule: `CC(=O)N[C@@H](Cc1ccc(F)c(-c2cccnc2)c1)[C@H](O)CN[C@H]1CC2(CCC2)Oc2ccc(CC(C)(C)C)cc21`
6.40

# per-item lookup of pIC50; items listed below
1. CC(=O)N[C@@H](Cc1ccc(F)c(-c2ccco2)c1)[C@H](O)CN[C@H]1CC2(CCC2)Oc2ccc(CC(C)(C)C)cc21
2. CC(=O)N[C@@H](Cc1cccc(-n2ccnc2)c1)[C@H](O)CN[C@H]1CC2(CCC2)Oc2ccc(CC(C)(C)C)cc21
3. CC(=O)N[C@@H](Cc1cccc(C#N)c1)[C@H](O)CN[C@H]1CC2(CCC2)Oc2c(-c3ccncc3)cc(CC(C)(C)C)cc21

[5.51, 6.70, 5.55]

Suppose we examine the molecule `CC(=O)N[C@@H](Cc1cc(Br)c2c(c1)OCO2)[C@H](O)CN[C@H]1CC2(CCC2)Oc2ncc(CC(C)(C)F)cc21` ; what pIC50 value has been reported?
5.92

====

I'd appreciate it if you could supply pIC50 values for the items below.
TESTED_SYSTEM: CYP3A4 (CYP3A) (Homo sapiens, UniProt P08684);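 also: inhibition of CYP3A-mediated 1-hydroxymidazolam formation after 10 min incubation with NADPH, quantified by HPLC MS relative to metabolite produced without test compound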
Sequence (P08684 2-503): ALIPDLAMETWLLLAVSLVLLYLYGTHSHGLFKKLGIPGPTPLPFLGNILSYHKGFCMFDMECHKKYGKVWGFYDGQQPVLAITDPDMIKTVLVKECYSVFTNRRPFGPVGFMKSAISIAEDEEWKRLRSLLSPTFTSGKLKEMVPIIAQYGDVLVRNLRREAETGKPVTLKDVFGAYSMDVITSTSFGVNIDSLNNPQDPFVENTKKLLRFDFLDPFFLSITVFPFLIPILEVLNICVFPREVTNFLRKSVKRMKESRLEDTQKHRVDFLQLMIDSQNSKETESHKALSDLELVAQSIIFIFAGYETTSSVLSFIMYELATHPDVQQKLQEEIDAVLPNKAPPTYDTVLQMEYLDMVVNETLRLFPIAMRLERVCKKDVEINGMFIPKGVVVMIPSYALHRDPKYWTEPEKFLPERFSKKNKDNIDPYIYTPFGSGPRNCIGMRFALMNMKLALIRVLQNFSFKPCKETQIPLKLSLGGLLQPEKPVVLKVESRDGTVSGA
ASSAY_INFO: in vitro
REPORTED_CONDITIONS: microsomes, pH 7.4
Numbers only, as −log10 of the molar value.

Example compounds with recorded pIC50:
Item `COCC(=O)N[C@@H](Cc1cccc([C@H]2CCCO2)c1)[C@H](O)CN[C@H]1CC2(CCC2)Oc2ncc(CC(C)(C)C)cc21` has what recorded pIC50?
6.40

Request the reported pIC50 associated with `COCC(=O)N[C@@H](Cc1ccc(F)cc1)[C@H](O)CN[C@H]1CC2(CCC2)Oc2nc(C)c(CC(C)(C)C)cc21`
6.30

Requested read-out: pIC50. Entry: `CC(=O)N[C@@H](Cc1ccc(F)cc1)[C@H](O)CN[C@H]1CC2(CCC2)Oc2c1cc(CC(C)(C)C)nc2N1CCOCC1`
5.89

Please give the measured pIC50 for this compound: `COCC(=O)N[C@@H](Cc1cc(F)cc(F)c1)[C@H](O)CN[C@H]1CC2(CCC2)Oc2c(-c3cnc[nH]3)cc(CC(C)C)cc21`
6.30

I am curious: what pIC50 value has been reported for `C#Cc1cccc(C[C@H](NC(=O)[C@@H](C)OC)[C@H](O)CN[C@H]2CC3(CCC3)Oc3ncc(CC(C)(C)C)cc32)c1` ?
7.30

Working through the 5 compounds below one at a time, give pIC50 for each.
1. CO[C@H](C)C(=O)N[C@@H](Cc1cncs1)[C@H](O)CN[C@H]1CC2(CCC2)Oc2c1cc(CC(C)(C)C)nc2-c1ccccn1
2. COCC(=O)N[C@@H](Cc1cccc(F)c1)[C@H](O)CN[C@H]1CC2(CCC2)Oc2c(-c3ccnc(Cl)c3)cc(CC(C)(C)C)cc21
3. CC(=O)N[C@@H](Cc1cc(F)cc(F)c1)[C@H](O)CN[C@H]1CC2(CCC2)Oc2c1cc(CC(C)(C)C)nc2Nc1ccccc1
4. C#Cc1cccc(C[C@H](NC(=O)C(OC)OC)[C@H](O)CN[C@H]2CC3(CCC3)Oc3ncc(CC(C)(F)F)cc32)c1
5. COCC(=O)N[C@@H](Cc1cc(F)cc(F)c1)[C@H](O)CN[C@H]1CC2(CCC2)Oc2c(-c3cncs3)cc(CC(C)C)cc21

1. 6.40
2. 5.92
3. 5.16
4. 7.00
5. 6.70

Give pIC50 for each listed item.
1. COCC(=O)N[C@@H](Cc1ccc(F)cc1)[C@H](O)CN[C@H]1CC2(CCC2)Oc2c1cc(CC(C)(C)C)nc2-c1ccncc1
2. CC(=O)N[C@@H](Cc1ccc(F)c(-c2ncc[nH]2)c1)[C@H](O)CN[C@H]1CC2(CCC2)Oc2ncc(CC(C)(C)C)cc21

7.00
6.52

Which pIC50 is listed for `COCC(=O)N[C@@H](Cc1cc(F)cc(F)c1)[C@H](O)CN[C@H]1CC2(CCC2)Oc2c1cc(CC(C)(C)C)nc2-c1nccn1C` ?
7.00

The values you see were collected from patent US8163909B2.
